target: Pendrin (Homo sapiens); test: Inhibition of human pendrin expressed in FRT cells co-expressing EYFP-HIF assessed as reduction in pendrin-mediated C17F exchange incubated for 10 mins by pH-sensitive fluorescent probe BCECF-AM based fluorescence assay relative to control; assay type: cell-based
Property Label: IC50

>>> result("Cc1n[nH]c(-c2cc(S(=O)(=O)NC3CCCc4ccccc43)c(C)s2)c1C (stereo unspecified)")
"9 µM"

====

Molecular target: UniProt O43511
Sequence (O43511 whole entry): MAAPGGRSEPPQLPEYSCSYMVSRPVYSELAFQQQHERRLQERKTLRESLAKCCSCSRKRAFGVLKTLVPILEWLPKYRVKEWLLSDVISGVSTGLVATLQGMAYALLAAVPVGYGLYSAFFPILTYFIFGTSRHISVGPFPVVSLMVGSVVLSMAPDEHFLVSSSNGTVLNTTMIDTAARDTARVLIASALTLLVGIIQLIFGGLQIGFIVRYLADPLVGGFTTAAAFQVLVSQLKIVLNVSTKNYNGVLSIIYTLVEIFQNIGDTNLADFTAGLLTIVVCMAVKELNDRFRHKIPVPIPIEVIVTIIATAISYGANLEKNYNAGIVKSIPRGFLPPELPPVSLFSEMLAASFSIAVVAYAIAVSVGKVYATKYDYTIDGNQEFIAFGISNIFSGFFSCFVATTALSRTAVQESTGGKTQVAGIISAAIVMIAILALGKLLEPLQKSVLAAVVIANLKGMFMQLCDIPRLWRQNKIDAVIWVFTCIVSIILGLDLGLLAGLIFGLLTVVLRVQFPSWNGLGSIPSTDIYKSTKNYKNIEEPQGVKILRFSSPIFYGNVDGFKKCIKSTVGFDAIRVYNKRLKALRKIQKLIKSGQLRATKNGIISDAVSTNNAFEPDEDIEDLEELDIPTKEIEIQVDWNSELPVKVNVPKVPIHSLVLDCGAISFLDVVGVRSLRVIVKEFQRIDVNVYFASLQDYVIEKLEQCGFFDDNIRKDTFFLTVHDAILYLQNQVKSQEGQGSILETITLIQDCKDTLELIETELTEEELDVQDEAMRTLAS
Experiment: Inhibition of human pendrin expressed in FRT cells co-expressing EYFP-HIF assessed as reduction in pendrin-mediated Cl(-)/r exchange incubated for 10 mins by pH-sensitive fluorescent probe BCECF-AM based fluorescence assay relative to control
Format: cell-based
pIC50: −log10 of the molar value.
Property Label: pIC50

>>> numeric_readout("Cc1n[nH]c(-c2cc(S(=O)(=O)NC3CCCc4ccccc43)c(C)s2)c1C (stereo unspecified)")
5.10
